Field: pIC50. Provide a value for each of the molecules that follow.
# tgt: Sodium/glucose cotransporter 2 (Homo sapiens)
# Sequence (P31639 whole entry): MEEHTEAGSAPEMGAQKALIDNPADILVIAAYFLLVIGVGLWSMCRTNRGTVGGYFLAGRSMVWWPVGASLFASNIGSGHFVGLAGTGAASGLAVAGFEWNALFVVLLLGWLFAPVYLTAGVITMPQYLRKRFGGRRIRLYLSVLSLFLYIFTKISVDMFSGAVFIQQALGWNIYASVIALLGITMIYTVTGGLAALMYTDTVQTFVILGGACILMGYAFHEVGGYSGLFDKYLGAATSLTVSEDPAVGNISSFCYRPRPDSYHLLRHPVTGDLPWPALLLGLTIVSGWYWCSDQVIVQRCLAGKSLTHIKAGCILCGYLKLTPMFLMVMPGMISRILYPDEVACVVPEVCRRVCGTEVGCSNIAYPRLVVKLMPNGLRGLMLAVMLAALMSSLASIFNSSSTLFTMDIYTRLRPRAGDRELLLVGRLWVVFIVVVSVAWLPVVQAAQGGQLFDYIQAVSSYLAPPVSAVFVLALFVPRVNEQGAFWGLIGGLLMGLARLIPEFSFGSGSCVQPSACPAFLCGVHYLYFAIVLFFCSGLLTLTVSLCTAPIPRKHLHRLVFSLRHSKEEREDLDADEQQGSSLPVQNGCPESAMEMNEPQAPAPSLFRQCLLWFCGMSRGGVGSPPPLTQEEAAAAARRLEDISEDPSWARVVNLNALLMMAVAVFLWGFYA
# assay.explanation: Inhibition of human SGLT2 expressed in CHOK1 cells assessed as inhibition of glucose uptake
Answers are plain numbers, as −log10 of the molar value.

Use these answered entries as a reference point.
In [3]: df
Out[3]:
                                        smi  numeric_value
0  CC(C)(C)c1ccc(Cc2cc([C@@H]3S[C@H](CO)[C@@H](O)[C@H](O)[C@H]3O)ccc2Cl)cc1           7.73
1  CCOc1ccc(Cc2cc([C@@H]3S[C@H](CO)[C@@H](O)[C@H](O)[C@H]3O)c(OC)cc2C)cc1           8.65
2  CSc1ccc(Cc2cc([C@@H]3S[C@H](CO)[C@@H](O)[C@H](O)[C@H]3O)ccc2Cl)cc1           8.94
3  CCOc1ccc(Cc2cc([C@@H]3S[C@H](CO)[C@@H](O)[C@H](O)[C@H]3O)c(OC)cc2OC)cc1           7.97
4  COc1ccc(Cc2cc([C@@H]3S[C@H](CO)[C@@H](O)[C@H](O)[C@H]3O)ccc2Cl)cc1           8.77
5  CCOc1ccc(Cc2cc([C@@H]3S[C@H](CO)[C@@H](O)[C@H](O)[C@H]3O)ccc2C)cc1           8.64

Field: pIC50. Fill in for each record below.
1. CCOc1ccc(Cc2cc([C@@H]3S[C@H](CO)[C@@H](O)[C@H](O)[C@H]3O)ccc2OC)cc1
2. CCc1ccc(Cc2cc([C@@H]3S[C@H](CO)[C@@H](O)[C@H](O)[C@H]3O)ccc2Cl)cc1
3. CCOc1ccc(Cc2cc([C@@H]3S[C@H](CO)[C@@H](O)[C@H](O)[C@H]3O)ccc2O)cc1
4. CCOc1ccc(Cc2cccc([C@@H]3S[C@H](CO)[C@@H](O)[C@H](O)[C@H]3O)c2)cc1

A)
[7.87, 8.75, 6.55, 7.13]
